System: Plasmodium falciparum
Experiment: GSK_TCMDC: Inhibition of Plasmodium falciparum 3D7 in whole red blood cells, using parasite LDH activity as an index of growth. Test compounds present at 2uM
Format: functional
This section presents compounds with their documented Inhibition values.
QUANTITY: Inhibition

> print(dat)
                                    compound    quantity  experimental.value
 1  COc1ccc(-n2ccnc2SCC(=O)Nc2cc(C(F)(F)F)ccc2Cl)c(OC)c1  Inhibition                 98%
 2  COc1ccc2nccc([C@@H](O)CN3CCC(NCc4cc5ccccc5s4)CC3)c2c1.O=C(O)C(=O)O  Inhibition                 97%
 3      COc1cc2nc(Cl)nc(Nc3ccncc3)c2cc1OC.Cl  Inhibition                 86%
 4  Br.CCC1N=C(N)N=C(N)N1OCCCOc1c(Cl)cc(Cl)cc1Cl (stereo not given)  Inhibition                 95%
 5  CCCNCc1ccc(-c2ccc(CN(Cc3cccs3)C(=O)C3CCN(C)CC3)cc2)nc1.O=C(O)C(F)(F)F  Inhibition                 99%
 6  O=C(Nc1ccc(C(F)(F)F)cc1)Nc1cccc([N+](=O)[O-])c1  Inhibition                100%
 7       COc1cc(Cc2cnc(N)nc2N)c2ccsc2c1OC.Cl  Inhibition                 92%
 8             Nc1cccc(-c2ccc3ccnc(N)c3c2)c1  Inhibition                 91%
 9       CNCCCNCc1ccc(-c2ccc(F)c(Cl)c2)o1.Cl  Inhibition                100%
10  CC1CC(NCCCNc2cc(=O)c3ccccc3[nH]2)c2c(Cl)c(Cl)cc(Cl)c21 (stereo not given)  Inhibition                 87%
11  CCCN1CCN(CCCNC(=O)c2cc3c(Cl)nc4ccc(C)cc4c3s2)CC1  Inhibition                 97%
12  CC(C)CCNC(=O)[C@@H]1[C@H]2C(=O)N(C3CCCCC3)C(=O)[C@H]2[C@H]2C=C[C@@H]3C(c4ccc(C(C)(C)C)cc4)=NO[C@@H]3N21  Inhibition                 96%
13  O=C1C(c2ccccc2)=C(Nc2cc(Cl)cc(Cl)c2)c2ccccc21  Inhibition                 96%
14  O=C(Nc1ccc2c(c1)CCC2)c1nc(N2CCN(c3ccncc3)CC2)ccc1Cl.O=C(O)C(F)(F)F  Inhibition                100%
15    COc1ccc2nc(C)cc(NC3Cc4ccccc4C3)c2c1.Cl  Inhibition                 98%
16  OC(c1ccc(Cl)cc1)(c1ccc(Cl)cc1)C(c1ccc(Cl)cc1)n1ccnc1 (stereo not given)  Inhibition                100%
17  CN1CCCc2ccc(NC(=O)c3cc(-c4ccc(Cl)cc4)cs3)cc2C1.O=C(O)C(F)(F)F  Inhibition                 94%
18  Cc1cc(-c2ccc(CNC3Cc4ccccc4C3)cc2)ccc1S(=O)(=O)NCCN1CCCC1.O=C(O)C(F)(F)F  Inhibition                100%
19  COc1ccc2[nH]c(C)cc(=NN=Cc3ccc(F)cc3)c2c1  Inhibition                100%
20  CC(CN(C)C)C(=O)Nc1ccc(-c2cccc(-c3nc4cc(C(F)(F)F)ccc4[nH]3)c2)cc1 (stereo not given)  Inhibition                100%

---

Test system: Plasmodium falciparum
Test: GSK_TCMDC: Inhibition of Plasmodium falciparum 3D7 in whole red blood cells, using parasite LDH activity as an index of growth. Test compounds present at 2uM
Assay type: functional

MOLECULE	STUDY SYSTEM	UNIT DESCRIPTOR	Inhibition
NCc1ccc(CNCc2cccc(-c3cccc(-c4nc5ccccc5[nH]4)c3)c2)cc1.O=C(O)C(F)(F)F	Plasmodium falciparum	%	100
N#Cc1cccc(COC(=O)C2=C(COc3ccccc3Cl)NC(=O)NC2c2c[nH]c3cnccc23)c1 (stereo not drawn)	Plasmodium falciparum	%	99
N#Cc1ccc(N2CCN(Cc3cccc(-c4cccc(-c5nc6cc(C(F)(F)F)ccc6[nH]5)c4)c3)CC2)nc1.O=C(O)C(F)(F)F	Plasmodium falciparum	%	99
COc1ccc(/C=C/C(=O)Nc2ccc(-c3ccncc3)cc2)cc1CCCN(C)C.O=C(O)/C=C\C(=O)O	Plasmodium falciparum	%	100
CCc1ccccc1N1CCN(CCCCNC(=O)c2ccc(NC(=O)c3ccc(Cl)cc3)cc2)CC1	Plasmodium falciparum	%	96
CCCn1c(O)nnc1SCC(=O)Nc1cc(C(F)(F)F)ccc1Cl	Plasmodium falciparum	%	96
O=C(Nc1cccc(-c2cccc(-c3ccc(F)cc3)n2)c1)c1ccc([N+](=O)[O-])o1	Plasmodium falciparum	%	99
C=C[C@]1(C)C[C@@H](OC(=O)CNC[C@@H](O)CN2C[C@H](c3ccnc4ccc(OC)nc34)OC2=O)[C@@]2(C)[C@@H]3C(=O)CC[C@@]3(CC[C@@H]2C)[C@@H](C)[C@@H]1O	Plasmodium falciparum	%	89
CC(=O)Nc1ccc(C(=O)NC2CCN(c3ccnc4cc(Cl)ccc34)CC2)cc1.O=C(O)C(F)(F)F	Plasmodium falciparum	%	100
COc1ccc(CNCCCCCCNCc2ccc(OC)c3ccccc23)c2ccccc12.Cl	Plasmodium falciparum	%	100
COc1cc(-c2nc(-c3ccccc3)c(-c3ccccc3)[nH]2)ccc1OCCN(C)C	Plasmodium falciparum	%	100
Cc1ccoc1C(=O)Nc1cccc(-c2cccc(-c3nc4ccccc4[nH]3)c2)c1	Plasmodium falciparum	%	85
Cl.Oc1cc(-c2nc(C3(CNCc4ccc(Cl)cc4)CCCCC3)[nH]c2-c2ccncc2)ccc1Cl	Plasmodium falciparum	%	100
Cl.Nc1c2c(nc3ccc(NC(=O)Cc4ccccc4)cc13)CCCC2	Plasmodium falciparum	%	100
CCN(CC)CCCN(C(=O)Nc1ccc(C#N)cc1)c1nc(-c2ccc(F)cc2)cs1	Plasmodium falciparum	%	99
CC1CCCN1Cc1cccc(-c2ccc(C(=O)NCCOc3ccccc3)s2)c1.O=C(O)C(F)(F)F (stereo not drawn)	Plasmodium falciparum	%	83
Cl.FC(F)(F)c1ccc2c(NCCCNc3ccnc4cc(C(F)(F)F)ccc34)ccnc2c1	Plasmodium falciparum	%	100
CNC(=S)NCc1cnc2ccccn12	Plasmodium falciparum	%	97

---

System: Plasmodium falciparum
Assay: GSK_TCMDC: Inhibition of Plasmodium falciparum Dd2 in whole red blood cells, using parasite LDH activity as an index of growth. Test compounds present at 2uM
Type: functional
If the reported Inhibition equals or exceeds 60%, assign Y. If not, assign N.

> print(dat)
                                   molecule  label.class
1  CS(=O)(=O)c1cccc(-c2cnc(N)c3cc(-c4ccc5c(c4)OCO5)ccc23)c1.O=CO            N
2  Cn1cncc1C(=O)Nc1cccc(-c2cccc(-c3nc4cc(F)ccc4[nH]3)c2)c1            N
3   Cl.Nc1nc(N)c2c(ccc3nn(Cc4cccnc4)cc32)n1            N
4  CC(C)(C)OC(=O)NCc1ccc(Nc2nnc(-c3ccc(OCC(=O)NCc4ccc(C(C)(C)C)cc4)c([N+](=O)[O-])c3)o2)cc1            Y
5  N=C(NCc1ccccc1)Nc1nc(-c2ccc(OCCCn3ccnc3)cc2)cs1            N
6  CCC[C@@H]([C@@H](CC1CCCCC1)C(=O)N[C@H](C(=O)Nc1nccs1)C(C)(C)SC)N(O)C=O            Y
7  Cc1ccc(C2(CN3CCC(NC(=O)c4n[nH]cc4Cl)CC3)CCCCC2)cc1            Y
8  O=C(Cc1ccccc1)NC(CCN1CCC(NC(=O)c2ccc(Cl)cc2)CC1)c1ccc(Cl)c(Cl)c1 (centres undefined)            N
9   O=C(CC(=O)C(F)(F)F)c1ccccc1[N+](=O)[O-]            Y

---

Tested on: HepG2
Assay: GSK_TCMDC: Percent inhibition of human HepG2 cell line. Test compounds present at 10uM.
Type: functional
The following compounds are listed with their measured Inhibition values.
QUANTITY: Inhibition

> print(dat)
                                    compound  experimental.value
 1  CCC[C@@H]([C@@H](CC1CCCCC1)C(=O)N[C@H](C(=O)Nc1nccs1)C(C)(C)SCCNC(=O)OCC)N(O)C=O                 45%
 2  CCN(CC)CCN(Cc1ccc(-c2ccc(C(F)(F)F)cc2)cc1)C(=O)Cn1c(CCc2c(F)cc(F)cc2F)nc(=O)c2ccccc21.O=C(O)C(O)C(O)C(=O)O                 39%
 3  COC(=O)CCCCOc1c(OC)cc(Cc2cnc(N)nc2N)cc1OC                  0%
 4  CN(C)c1ccc(/C=C2\S/C(=N\c3ccccc3)N(c3ccccc3)C2=O)cc1[N+](=O)[O-]                  9%
 5                CC(C)CCNCc1c(O)ccc2ccccc12                  9%
 6  O=C(Nc1cccc(-c2ccc(-c3nc4cc(F)ccc4[nH]3)cc2)c1)c1cccnc1                 27%
 7  O=C(/C=C/c1ccc(Cl)c(Cl)c1)N1CCC(CCCN2CCC(c3c[nH]c4ccc(O)cc34)CC2)CC1                 60%
 8  COc1ccccc1NC(=O)Nc1ccc(-c2ccc(-c3nc4cccc(C)c4[nH]3)s2)cc1                 71%
 9  CC(=O)Nc1cccc(C(=O)Nc2cccc(-c3ccc(-c4nc5cc(F)ccc5[nH]4)cc3)c2)c1                 60%
10  COc1cc2nccc(Nc3ccc4c(cnn4Cc4cccc(F)c4)c3)c2cc1OC.Cl                 29%
11  COc1ccc(-c2ccc(NC(=O)c3cccc(C#N)c3)cc2)cc1CN1CCC(O)CC1.O=C(O)C(F)(F)F                 21%
12  COc1ccc(NC(=O)NC2CCN(CCCCCNC(=O)/C=C/c3ccc(Cl)c(Cl)c3)CC2)cc1                  5%
13  Cc1cc(NC(=O)NCCN2CCC(NS(=O)(=O)c3ccc(Br)cc3)C2)c2ccccc2n1.O=C(O)C(F)(F)F (stereo unspecified)                  9%
14  COc1cc(C(=O)NC2CCN(Cc3ccccc3)CC2)ccc1-c1cc2cc(Cl)c(Cl)cc2[nH]1.O=C(O)C(F)(F)F                 33%
15  Fc1ccc2[nH]c(-c3ccc(-c4cccc(CN5CCN(CCN6CCOCC6)CC5)c4)cc3)nc2c1.O=C(O)C(F)(F)F                 35%
16  CC(C)c1ccc(NC(=O)c2ccc(C(=O)NC3CCN(CC4CCCCC4)CC3)cc2)cc1.O=C(O)C(F)(F)F                 34%
17  Cc1nc(C(C)Nc2nncc(-c3ccc(Cl)cc3)n2)cs1 (stereo unspecified)                  0%
18    ON=C(c1nc2ccccc2[nH]1)c1nc2ccccc2[nH]1                 36%
19  CC1CCC(C[C@@H](C(=O)N[C@@H](CCC(=O)N2CCCCC2)C(=O)Nc2nccs2)[C@H](C(C)C)N(O)C=O)CC1 (stereo partly specified)                 38%
20  Cc1nnsc1C(=O)Nc1cccc(-c2ccc(-c3nc4cccc(C)c4[nH]3)s2)c1                 46%
21  CC1CC(NCCCNc2cc(=O)c3ccccc3[nH]2)c2c(Cl)c(Cl)cc(Cl)c21 (stereo unspecified)                  6%
22  COc1cc2nc(N[C@@H](CO)c3ccccc3)nc(NCc3ccccc3)c2cc1OC                  6%
23  COCc1cc(C)nc2sc(C(=O)Nc3cc(C(C)(C)C)ccc3O)c(N)c12                  0%
24  CCCCCc1cc(OC(=O)CCCN(CC)CC)c2c(c1)OC(C)(C)C=C2C1=CCN(Cc2ccc3ccccc3c2)CC1                 94%
25  CCc1cc2c(=O)c(-c3nc(C)cs3)c(N)oc2c(CN2CCCCC2)c1O                  0%
26  O=C(Nc1cccc(-c2nn3ncccc3c2-c2ccnc(Nc3ccc(N4CCOCC4)cc3)n2)c1)c1c(F)cccc1F                 75%
27  CC(C)(C)C(=O)Nc1ccc(N2CCN(C(c3ccccc3)c3ccccc3)CC2)c(Cl)c1                  0%
28  Cc1cc(N/N=C/c2ccccc2[N+](=O)[O-])c2ccccc2n1                 10%
29    Br.CC1(C)NC(N)=NC(=N)N1OCCCOc1ccccc1Cl                 64%
30  Cc1sc2nc(CSc3ccccc3)nc(N3CCN(CC(=O)N4CCCC4)CC3)c2c1C                 19%
31  N#Cc1ccc2c(c1)CCN(CCCn1c(-c3ccc4ccccc4c3)nc3ccncc31)CC2                 38%
32  CCOc1cc(C(=O)NC2CC(C)(C)NC(C)(C)C2)ccc1-c1nc2cc(Cl)ccc2[nH]1                 46%
33  CCN(CC)CC(O)c1cc(-c2ccc(OC)cc2)nc2cc(Cl)ccc12.Cl (stereo unspecified)                 12%
34  COc1nc2c(CCN3CCC(NCc4ccc5c(n4)NC(=O)CO5)CC3)c(Cl)cnc2cc1F.Cl                 17%
35  CCOc1ccc2c(=NN=Cc3cccc(OC)c3)cc(C)[nH]c2c1                 38%
36  N#C/N=C(\NCCCCCCCCN/C(=N\C#N)NCCSCc1csc(N=C(N)N)n1)NCCCSc1csc(N=C(N)N)n1                  0%
